# Test system: SARS-CoV-2 hCoV-19/Australia/VIC01/2020 (lineage B)
# testName: Reduction of cytopathic effect on Vero E6 cells, MTT, strain hCoV-19/Australia/VIC01/2020
# Type: cell-based
# recordedConditions: Severe acute respiratory syndrome coronavirus 2, Vero C1008, 96 h; Vero E6 cells, 100 TCD50 per well, 4 days, MTT, lineage B; read-out: IC50 hCoV-19/Aust/VIC01/2020
measuredProperty: IC50 (µM)
Answers are plain numbers, in µM.

Qu. Name the reported IC50 value associated with the compound "CCC(CC)COC(=O)[C@H](C)N[P@](=O)(OC[C@H]1O[C@@](C#N)(c2ccc3c(N)ncnn23)[C@H](O)[C@@H]1O)Oc1ccccc1"
Ans. 3.3

* * *

# testName: MTT cytotoxicity assay in TZM-bl cells
# Assay type: cell-based
# recordedConditions: human; TZM-bl cells, MTT test, 72 h incubation
# Experimental: The cytotoxicity of the obtained compounds was assessed in TZM-bl cells using the MTT test. The preparations were diluted with DMEM medium so that their starting concentration was 1000 μM and the final volume of DMSO was no more than 1%. […] A range of non-toxic concentrations was determined for each compound and used in subsequent experiments on their antiviral activity. […]
For each record, write down the corresponding CC50 at 72 h.

molecule | CC50 at 72 h
CC1(C)C2CC[C@]3(C)C(C(=O)C=C4[C@@H]5C[C@@](C)(C(=O)O)CC[C@]5(C)CC[C@]43C)[C@@]2(C)CC[C@@H]1OC(=O)c1cccnc1 (some centres unmarked) [Nic-GA, glycyrrhetinic acid nicotinate] | < 7.8 µM

Attention now shifts to the item below.
Qu. What value of CC50 at 72 h has been reported for the following molecule? "CC1(C)[C@@H](O[C@H]2O[C@H](C(=O)O)[C@@H](O)[C@H](O)[C@H]2O[C@@H]2O[C@H](C(=O)O)[C@@H](O)[C@H](O)[C@H]2O)CC[C@]2(C)[C@H]3C(=O)C=C4[C@@H]5C[C@@](C)(C(=O)O)CC[C@]5(C)CC[C@@]4(C)[C@]3(C)CC[C@@H]12"
Ans. > 1000 µM

* * *

# testName: in vitro
# recordedConditions: African green monkey
measuredProperty: CC50 (µM)
Numbers only, in µM.

Qu. Name the reported CC50 value associated with the compound CC1(C)C2CC[C@]3(C)C(C(=O)C=C4[C@@H]5C[C@@](C)(C(=O)O)CC[C@]5(C)CC[C@]43C)[C@@]2(C)CC[C@@H]1OC(=O)c1cccnc1 (some centres unmarked) [Nic-GA, glycyrrhetinic acid nicotinate]
Ans. 101

* * *

# testName: in vitro
# recordedConditions: African green monkey, Vero E6 cells
measuredProperty: CC50 at 4 days (µM)
Give bare numbers, in µM.

Qu. What does the record list as CC50 at 4 days for "CCC(CC)COC(=O)[C@H](C)N[P@](=O)(OC[C@H]1O[C@@](C#N)(c2ccc3c(N)ncnn23)[C@H](O)[C@@H]1O)Oc1ccccc1" ?
Ans. 711
